- Study system: PARP1 (Homo sapiens, UniProt P09874)
- Sequence (P09874 whole entry): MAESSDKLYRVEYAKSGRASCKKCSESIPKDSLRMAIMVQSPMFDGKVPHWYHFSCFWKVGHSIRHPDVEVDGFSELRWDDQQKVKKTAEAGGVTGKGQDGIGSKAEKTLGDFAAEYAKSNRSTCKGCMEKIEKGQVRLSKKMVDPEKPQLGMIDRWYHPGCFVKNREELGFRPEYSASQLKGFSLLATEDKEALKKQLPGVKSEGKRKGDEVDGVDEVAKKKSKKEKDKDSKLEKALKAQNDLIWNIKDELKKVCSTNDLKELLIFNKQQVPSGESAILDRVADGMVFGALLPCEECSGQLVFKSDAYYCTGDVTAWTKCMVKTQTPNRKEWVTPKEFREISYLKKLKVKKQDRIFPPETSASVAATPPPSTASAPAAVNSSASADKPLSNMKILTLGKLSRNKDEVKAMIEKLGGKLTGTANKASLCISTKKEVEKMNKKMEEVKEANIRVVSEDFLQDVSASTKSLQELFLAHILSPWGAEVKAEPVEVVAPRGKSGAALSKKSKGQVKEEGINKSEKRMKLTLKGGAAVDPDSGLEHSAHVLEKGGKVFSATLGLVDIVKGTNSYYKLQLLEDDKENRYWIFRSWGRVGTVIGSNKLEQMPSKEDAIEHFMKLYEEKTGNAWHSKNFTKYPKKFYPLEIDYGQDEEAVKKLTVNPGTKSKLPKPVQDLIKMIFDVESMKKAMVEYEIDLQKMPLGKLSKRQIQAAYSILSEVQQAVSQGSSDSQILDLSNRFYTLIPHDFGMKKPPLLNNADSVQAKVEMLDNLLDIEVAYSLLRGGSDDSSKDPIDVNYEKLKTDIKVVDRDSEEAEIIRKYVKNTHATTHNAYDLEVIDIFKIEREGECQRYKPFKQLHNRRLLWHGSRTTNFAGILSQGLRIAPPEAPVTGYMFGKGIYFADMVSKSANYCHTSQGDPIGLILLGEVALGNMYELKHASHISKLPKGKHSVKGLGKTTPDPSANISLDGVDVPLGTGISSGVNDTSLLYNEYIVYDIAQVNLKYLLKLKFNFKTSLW
- Assay protocol: biochemical assay (Table 2); FP binding assay (PARP1, PARP2) with PARPi-FL
- Recorded conditions: Table 2, results of the biochemical assay
Value type: IC50

Compound | Study system | Value type | Observed
CNC(=O)c1ccc(N2CCN(Cc3ccc4c(c3F)NC(=O)C3(CC3)O4)CC2)c(C)n1 [Compound A8] | PARP1 (Homo sapiens, UniProt P09874) | IC50 | < 5 nM

====

- Study system: PARP1 (Homo sapiens)
- Assay protocol: cell-based assay (Table 1); proliferation assay (PARP inhibitors) in DLD-1 wt and DLD-1 BRCA2, CTG detection
- Parameters: endogenous in cells; host or cells: DLD-1 wt and DLD-1 BRCA2 (-/-)
- Recorded conditions: Table 1, results of the cell-based assay; cell line (DLD-1 wt or DLD-1 BRCA2) not given
pIC50: −log10 of the molar value.

Molecule | pIC50
CNC(=O)c1ccc(N2CCN(Cc3ccc4c(c3F)NC(=O)C3(CC3)O4)CC2)c(C)n1 | > 7.00
CCC1Oc2ccc(CN3CCN(c4ccc(C(=O)NC)nc4F)CC3)c(F)c2NC1=O (single isomer, unassigned) [Compound 3ab] | > 7.00
CCC1Oc2ccc(CN3CCN(c4ccc(C(=O)NC)nc4F)CC3)c(F)c2NC1=O (single isomer, unassigned) [Compound 3aa] | > 7.00
